Recorded values, source ChEMBL document CHEMBL5058577.

Entries and their Population Mitotic Cells (%)
system: Fibroblast; assay: Multiplex assay against human fibroblast; type: toxicity, cell-based; details: 24 h, 10 µM, compound concentration 10 uM, replicate 2
The response must be a number in % with no trailing unit.

// known answers, use as guide
> print(dat)
                                   compound  value.reported
1  COc1c(Nc2ccc(S(C)(=O)=O)nc2C)ncnc1OC1CCN(C(=O)OC(C)C)CC1 [ADP-597]              72
2  CN(C)C/C=C/C(=O)Nc1ccc(C(=O)N2CCCC(Nc3ncc(Cl)c(-c4c[nH]c5ccccc45)n3)C2)cc1 (centres undefined)              52

Q: Look at this compound and give its reported Population Mitotic Cells (%). CN1CCN2c3ccccc3Cc3ccccc3C2C1.Cl (centres undefined) [MIANSERIN HYDROCHLORIDE]
Result: 52

Q: What about this compound? COc1cc(Nc2ncc3c(n2)-c2ccc(Cl)cc2C(c2c(F)cccc2OC)=NC3)ccc1C(=O)O [ALISERTIB]
Result: 43

Q: What about this compound? `COCCn1c(C)c(C)s/c1=N\C(=O)C1C(C)(C)C1(C)C`
Result: 66

Q: What about this compound? Cl.Cl.OCCOCCN1CCN(C(c2ccccc2)c2ccc(Cl)cc2)CC1 (centres undefined) [HYDROXYZINE HYDROCHLORIDE]
Result: 63

Q: What about this compound? `CN1CCN(c2ccc(Nc3c4ccccc4nc4ccccc34)cc2)CC1.Cl.Cl.O`
Result: 40

Q: What about this compound? `C[C@@H]1CC(=O)Nc2cccc(-c3ccc4c(c3)c(-c3cnn(C)c3)nn4C)c2N1`
Result: 57

Q: What about this compound? Cc1cc(NC(=O)NCCN2CCC(O)(Cc3ccccc3)CC2)c2ccccc2n1 [PALOSURAN]
Result: 40

----------
system: U2OS; assay: Multiplex assay against U2OS; assay type: toxicity, cell-based; conditions: human, 24 h, 1 µM, compound concentration 1 uM, replicate 2
Entries and their Population Pyknosed Nuclei (%)
The response must be a number in % with no trailing unit.

> print(dat)
                                   compound                  assay.endpoint  quantity.unit  value.reported
1  COC(c1ccccc1)(c1ccccc1)[C@H](Oc1nc(C)cc(C)n1)C(=O)O  Population Pyknosed Nuclei (%)              %              10
2  Cc1cc(-c2ccc3c(c2)CC[C@H]3N2CC3(CCN(C(=O)Cc4cn5cc(C)sc5n4)CC3)C2)ncn1  Population Pyknosed Nuclei (%)              %               2
3      Nc1nc(-c2ccco2)c2cnn(Cc3ccccc3F)c2n1  Population Pyknosed Nuclei (%)              %              10
4  S=C(NCCCc1c[nH]cn1)NCCCN(Cc1ccc(Cl)c(Cl)c1)c1ccc(Br)cn1  Population Pyknosed Nuclei (%)              %               4
5  Cn1cc(C(=O)OCC2CCN(CCNS(C)(=O)=O)CC2)c2ccccc21  Population Pyknosed Nuclei (%)              %               4
6  COc1ccc2c(c1OCc1ccccc1)C[C@@H](C(=O)O)N(C(=O)C(c1ccccc1)c1ccccc1)C2  Population Pyknosed Nuclei (%)              %               6
7  COCCCN1CCC(NC(=O)c2cc(Cl)c(N)c3c2OCC3)CC1 [PRUCALOPRIDE]  Population Pyknosed Nuclei (%)              %               7
8  C[C@@H]1CC(=O)Nc2cccc(-c3ccc4c(c3)c(-c3cnn(C)c3)nn4C)c2N1  Population Pyknosed Nuclei (%)              %               4

// next entry
Q: Look at this compound and give its reported Population Pyknosed Nuclei (%). `CSc1nc(NC2CCCC2)c([N+](=O)[O-])c(NC2CCCC2)n1`
Result: 11
